Kindly supply the reported % of injected dose remaining in liver values for the records listed here.
Experiment: Peptoid quantity remaining in liver by HPLC-TOF mass spectrometry; note: time not given here
Assay type: in vivo
Details: liver homogenate
Starred links: 1 amine or outer side, 2 acyl side, 3 side chain; linkers in the order of their positions; H or OH if unused. Non-standard residues stand in square brackets, D forms with d. Residues, ends and D or L forms follow the SMILES beside them. Gly(N-(3-decanoyloxypropyl)) = CCCCCCCCCC(=O)OCCCNCC(=O)O; N(3-lauroyloxypropyl)Gly = CCCCCCCCCCCC(=O)OCCCNCC(=O)O; N(2-ethylhexyl)Gly = CCCCC(CC)CNCC(=O)O; X2 = CCCCCCC(CCCC)CN(CC(=O)[*:2])[*:1]; N(CH(CH2OH)2)Gly = O=C(O)CNC(CO)CO

{"Compound": "CCCCCCCCCC(=O)OCCCN(CC(=O)N(CC(=O)N(CC(=O)N(CCCOC(=O)CCCCCCCCC)CC(=O)N(CC(N)=O)CC(CCCC)CCCCCC)CC(CC)CCCC)CC(CCCC)CCCCCC)C(=O)CN(CC(CC)CCCC)C(=O)CNC(CO)CO (centres unmarked) [Compound 61] (H-[N(CH(CH2OH)2)Gly][N(2-ethylhexyl)Gly][Gly(N-(3-decanoyloxypropyl))][X2][N(2-ethylhexyl)Gly][Gly(N-(3-decanoyloxypropyl))][X2]-NH2)", "% of injected dose remaining in liver": "13.39%"}

Pending compound:
In one line, give reported % of injected dose remaining in liver of the entry CCCCCCCCCCCC(=O)OCCCN(CC(=O)N(CC(=O)N(CC(=O)N(CCCOC(=O)CCCCCCCCCCC)CC(=O)N(CC(N)=O)CC(CC)CCCC)CC(CC)CCCC)CC(CC)CCCC)C(=O)CN(CC(CC)CCCC)C(=O)CNC(CO)CO (centres unmarked) [Compound 6] (H-[N(CH(CH2OH)2)Gly][N(2-ethylhexyl)Gly][N(3-lauroyloxypropyl)Gly][N(2-ethylhexyl)Gly][N(2-ethylhexyl)Gly][N(3-lauroyloxypropyl)Gly][N(2-ethylhexyl)Gly]-NH2) . 13.73%
